Each entry below lists one item and its recorded Waterhemp plant response rating value.
- Test system: waterhemp (common waterhemp, Amaranthus rudis)
- experimental details: Test D pre-/postemergence plant response
- Assay type: in vivo
- setup conditions: Postemergence, 62 g ai/ha; scale 0 to 100, 0 no effect, 100 complete control
endpoint: Waterhemp plant response rating

>>> value_observed("Clc1cnc(Oc2ccccc2-c2ccon2)nc1 [Compound 185]")
25
>>> value_observed("Fc1cccc(Oc2ncc(Cl)cn2)c1-c1cc(C(F)(F)F)no1 [Compound 228]")
95
>>> value_observed("FC(F)c1cc(-c2c(Cl)cccc2Oc2ncc(Cl)cn2)no1 [Compound 179]")
95
>>> value_observed("Clc1cnc(Oc2ccccc2-c2cc(Cl)sn2)nc1 [Compound 192]")
55
>>> value_observed("N#Cc1cccc(Oc2ncc(Cl)cn2)c1-c1cc(C(F)F)on1 [Compound 180]")
90

====

- System: large (Lg) crabgrass (Digitaria sanguinalis)
- experimental details: Test B pre-/postemergence plant response
- Type: in vivo
- setup conditions: 125 g ai/ha, postemergence; 0 to 100 scale, 0 no effect, 100 complete control
endpoint: Plant response rating, Crabgrass, Large

>>> value_observed("Clc1cnc(Oc2ccccc2-c2nccs2)nc1")
0
>>> value_observed("FC(F)(F)c1ccc(-c2ccccc2Oc2ncc(Br)cn2)nc1")
20
>>> value_observed("FC(F)(F)c1ccnc(-c2ccccc2Oc2ncc(Br)cn2)c1")
10
>>> value_observed("Cn1nc(C(F)(F)F)cc1-c1ccccc1Oc1ncc(Cl)cn1")
0
>>> value_observed("N#Cc1cccc(Oc2ncc(Br)cn2)c1-c1ccc(Cl)cn1")
10
>>> value_observed("FC(F)(F)c1cc(-c2ccccc2Oc2ncc(Br)cn2)on1")
60
>>> value_observed("FC(F)(F)c1nccc(-c2ccccc2Oc2ncc(Cl)cn2)n1")
0
>>> value_observed("Fc1cnc(Oc2ccccc2-c2cc(C(F)(F)F)on2)nc1")
10

====

- Tested on: blackgrass (Alopecurus myosuroides)
- experimental details: Test D pre-/postemergence plant response
- Type: in vivo
- setup conditions: Alopecurus myosuroides, pre-emergence; Preemergence; 31 g ai/ha; scale 0 to 100 (0 no effect, 100 complete control); read-out: Plant response rating, Blackgrass
endpoint: pest or weed control at 31 g/ha (%)

>>> value_observed("FC(F)c1cc(-c2ccccc2Oc2ncc(Br)cn2)no1 [Compound 62]")
5
>>> value_observed("N#Cc1cccc(Oc2ncc(Cl)cn2)c1-c1cc(C(F)(F)F)ccn1 [Compound 158]")
15
>>> value_observed("FC(F)c1cc(-c2ccccc2Oc2ncc(Cl)cn2)no1 [Compound 35]")
90
>>> value_observed("Fc1cccc(Oc2ncc(Cl)cn2)c1-c1cc(C(F)F)on1 [Compound 55]")
90

====

- Tested on: Italian ryegrass (Lolium multiflorum)
- experimental details: Test D pre-/postemergence plant response
- Assay type: in vivo
- setup conditions: Postemergence, 62 g ai/ha; scale 0 to 100, 0 no effect, 100 complete control
- Text: […]
endpoint: Plant response rating, Ryegrass, Italian

>>> value_observed("Cn1nnc(-c2ccccc2Oc2ncc(Br)cn2)n1 [Compound 50]")
0
>>> value_observed("FC(F)(Br)c1cc(-c2ccccc2Oc2ncc(Cl)cn2)no1 [Compound 162]")
5
>>> value_observed("FC(F)(Cl)c1cc(-c2ccccc2Oc2ncc(Cl)cn2)no1 [Compound 143]")
0
>>> value_observed("Fc1ccc(Oc2ncc(Cl)cn2)c(-c2cc(C(F)F)on2)c1Cl [Compound 96]")
10
>>> value_observed("FC(F)Oc1cccc(Oc2ncc(Cl)cn2)c1-c1cc(C(F)F)on1 [Compound 131]")
5

====

- System: barnyardgrass (Echinochloa crus-galli)
- experimental details: Test C flooded paddy test plant response
- Format: in vivo
- setup conditions: Flood, 250 g ai/ha; scale of 0 to 100 where 0 is no effect and 100 is complete control; 13 to 15 days
Each entry below lists one item and its recorded Barnyardgrass plant response rating value.
endpoint: Barnyardgrass plant response rating

>>> value_observed("COc1cccc(Oc2ncc(Cl)cn2)c1-c1cc(C(F)F)no1")
60
>>> value_observed("FC(F)(F)COc1cc(-c2ccccc2Oc2ncc(Cl)cn2)on1")
0
>>> value_observed("CC(F)(F)c1cc(-c2ccccc2Oc2ncc(Br)cn2)no1")
0
>>> value_observed("CC(C)(F)c1cc(-c2ccccc2Oc2ncc(Cl)cn2)no1")
0
>>> value_observed("O=[N+]([O-])c1cc(Cl)cnc1-c1ccccc1Oc1ncc(Cl)cn1")
0

====

Each entry below lists one item and its recorded plant injury at 62 g/ha value.
- System: winter wheat (Triticum aestivum)
- experimental details: Test D pre-/postemergence plant response
- Type: in vivo
- setup conditions: Triticum aestivum, pre-emergence; Preemergence; 62 g ai/ha; scale 0 to 100 (0 no effect, 100 complete control); read-out: Plant response rating, Wheat
endpoint: plant injury at 62 g/ha (%)

>>> value_observed("FC(F)c1cc(-c2ccccc2Oc2ncc(Cl)cn2)on1")
0
>>> value_observed("FC(F)(F)c1cc(-c2ccccc2Oc2ncc(Cl)cn2)no1")
20
>>> value_observed("FC(F)c1cc(-c2ccccc2Oc2ncc(Cl)cn2)no1")
15
>>> value_observed("Fc1cccc(Oc2ncc(Br)cn2)c1-c1cc(C(F)F)no1")
5
>>> value_observed("FC(F)(F)c1cc(-c2ccccc2Oc2ncc(Cl)cn2)on1")
10
>>> value_observed("Fc1cccc(Oc2ncc(Cl)cn2)c1-c1cc(C(F)F)no1")
25
>>> value_observed("N#Cc1cccc(Oc2ncc(Cl)cn2)c1-c1cc(C(F)(F)F)ccn1")
0

====

- System: galium (catchweed bedstraw, Galium aparine)
- experimental details: Test D pre-/postemergence plant response
- Format: in vivo
- setup conditions: Galium, pre-emergence; Preemergence; 16 g ai/ha; scale 0 to 100 (0 no effect, 100 complete control); read-out: Plant response rating, Galium
endpoint: pest or weed control at 16 g/ha

>>> value_observed("FC(F)(F)c1cc(-c2ccccc2Oc2ncc(Cl)cn2)no1 [Compound 200]")
"85%"
>>> value_observed("FCc1cc(-c2ccccc2Oc2ncc(Cl)cn2)no1 [Compound 32]")
"25%"
>>> value_observed("Fc1cccc(Oc2ncc(Cl)cn2)c1-c1cc(C(F)F)no1 [Compound 144]")
"95%"
>>> value_observed("FC(F)c1cc(-c2ccccc2Oc2ncc(Cl)cn2)no1 [Compound 35]")
"100%"

====

Each entry below lists one item and its recorded pest or weed control at 62 g/ha value.
- Test system: arrowleaf sida (Sida rhombifolia)
- experimental details: Test F pre-/postemergence plant response
- Type: in vivo
- setup conditions: Sida rhombifolia, post-emergence; 62 g ai/ha Postemergence; scale 0 to 100; read-out: Plant response rating, Arrowleaf Sida
endpoint: pest or weed control at 62 g/ha

>>> value_observed("FC(F)c1cc(-c2ccccc2Oc2ncc(Br)cn2)no1")
"98%"
>>> value_observed("FC(F)c1cc(-c2ccccc2Oc2ncc(Cl)cn2)on1")
"100%"
>>> value_observed("Fc1cccc(Oc2ncc(Br)cn2)c1-c1cc(C(F)F)no1")
"98%"
>>> value_observed("FC(F)(F)c1cc(-c2ccccc2Oc2ncc(Cl)cn2)no1")
"95%"

====

Each entry below lists one item and its recorded plant injury at 250 g/ha value.
- System: rice (Oryza sativa)
- experimental details: Test C flooded paddy test plant response
- Format: in vivo
- setup conditions: Oryza sativa; Flood, 250 g ai/ha; scale of 0 to 100 where 0 is no effect and 100 is complete control; 13 to 15 days; read-out: Rice plant response rating
- Experimental: Plant species in the flooded paddy test selected from rice (Oryza sativa), small-flower umbrella sedge (Cyperus difformis), ducksalad (Heteranthera limosa), and bamyardgrass (Echinochloa crus-galli) were grown to the 2-leaf stage for testing. […] Treated plants and controls were maintained in a greenhouse for 13 to 15 days, after which time all species were compared to controls and visually evaluated. […]
endpoint: plant injury at 250 g/ha (%)

>>> value_observed("FC(F)c1cc(-c2ccccc2Oc2ncc(Br)cn2)no1")
40
>>> value_observed("FC(F)(F)c1ccc(-c2ccccc2Oc2ncc(Cl)cn2)nc1")
0
>>> value_observed("Fc1cccc(Oc2ncc(Cl)cn2)c1-c1cc(C(F)F)no1")
40
>>> value_observed("Fc1cccc(Oc2ncc(Cl)cn2)c1-c1cc(C(F)(F)F)on1")
40
>>> value_observed("Cc1ccc(Oc2ncc(Cl)cn2)c(-c2ccc(C(F)(F)F)nc2)c1")
0
>>> value_observed("FC(F)(F)c1nccc(-c2ccccc2Oc2ncc(Br)cn2)n1")
0
>>> value_observed("N#Cc1cccc(Oc2ncc(Cl)cn2)c1-c1cc(C(F)(F)F)ccn1")
0
>>> value_observed("Clc1ccc(-c2c(Cl)cccc2Oc2ncc(Cl)cn2)nc1")
0

====

Each entry below lists one item and its recorded Pigweed plant response rating value.
- Tested on: pigweed (Amaranthus retroflexus)
- experimental details: Test B pre-/postemergence plant response
- Assay type: in vivo
- setup conditions: Preemergence, 31 g ai/ha; 0 to 100 scale (0 no effect, 100 complete control)
endpoint: Pigweed plant response rating

>>> value_observed("CC(C)n1nc(C(F)(F)F)cc1-c1c(C#N)cccc1Oc1ncc(Cl)cn1 [Compound 90]")
0
>>> value_observed("Clc1cnc(Oc2ccccc2-c2cc(C(Cl)Cl)on2)nc1 [Compound 97]")
20
>>> value_observed("Fc1ccc(Oc2ncc(Cl)cn2)c(-c2cc(C(F)F)on2)c1Cl [Compound 96]")
90
>>> value_observed("CCn1nc(C(F)(F)F)cc1-c1c(C#N)cccc1Oc1ncc(Cl)cn1 [Compound 89]")
100
